target: Prostaglandin G/H synthase 2 (Homo sapiens, UniProt P35354); assay: Inhibition of human recombinant COX2 by fluorescence assay
Sequence (P35354 whole entry): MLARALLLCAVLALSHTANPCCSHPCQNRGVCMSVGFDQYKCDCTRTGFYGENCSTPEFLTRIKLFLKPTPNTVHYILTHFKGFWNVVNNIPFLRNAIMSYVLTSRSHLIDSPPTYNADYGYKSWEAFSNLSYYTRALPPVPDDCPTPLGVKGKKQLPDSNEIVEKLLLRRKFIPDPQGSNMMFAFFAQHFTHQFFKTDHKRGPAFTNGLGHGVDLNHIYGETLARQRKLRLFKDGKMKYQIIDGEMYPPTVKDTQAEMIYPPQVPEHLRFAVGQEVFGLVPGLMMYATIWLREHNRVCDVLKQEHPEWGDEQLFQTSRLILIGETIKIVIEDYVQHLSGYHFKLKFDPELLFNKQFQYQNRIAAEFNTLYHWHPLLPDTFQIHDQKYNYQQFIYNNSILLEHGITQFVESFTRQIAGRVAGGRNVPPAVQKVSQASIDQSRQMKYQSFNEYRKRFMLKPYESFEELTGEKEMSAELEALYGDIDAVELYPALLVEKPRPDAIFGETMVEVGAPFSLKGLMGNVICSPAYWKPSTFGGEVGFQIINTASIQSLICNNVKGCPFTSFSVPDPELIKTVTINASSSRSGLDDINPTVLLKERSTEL
Residues, ends and D or L forms follow the SMILES beside them.
Measured IC50, listed per entry.
READOUT_TYPE: IC50 (µM)

COMPOUND: CSCC[C@H](NC(=O)[C@H](Cc1ccc(O)cc1)NC(=O)c1ccc(F)cc1)C(=O)N[C@@H](CCC(=O)O)C(=O)O
READOUT_TYPE: IC50
CENSORING_OPERATOR: =
ASSAY_VALUE: 500

COMPOUND: O=C(N[C@@H](Cc1ccc(O)cc1)C(=O)N[C@@H](Cc1c[nH]c2ccccc12)C(=O)N[C@@H](CO)C(=O)O)c1ccc(F)cc1
READOUT_TYPE: IC50
CENSORING_OPERATOR: =
ASSAY_VALUE: 180

COMPOUND: CSCC[C@H](NC(=O)[C@H](Cc1ccc(O)cc1)NC(=O)c1ccc(F)cc1)C(=O)N[C@@H](CC(=O)O)C(=O)O
READOUT_TYPE: IC50
CENSORING_OPERATOR: >
ASSAY_VALUE: 1000

COMPOUND: N[C@@H](Cc1c[nH]c2ccccc12)C(=O)N[C@@H](Cc1ccc(O)cc1)C(=O)N[C@@H](CC(=O)O)C(=O)O (H-Trp-Tyr-Asp-OH)
READOUT_TYPE: IC50
CENSORING_OPERATOR: =
ASSAY_VALUE: 700

COMPOUND: O=C(N[C@@H](Cc1ccccc1)C(=O)N[C@@H](CS)C(=O)N[C@@H](CO)C(=O)O)c1ccc(F)cc1
READOUT_TYPE: IC50
CENSORING_OPERATOR: =
ASSAY_VALUE: 13

COMPOUND: O=C(O)C[C@H](NC(=O)[C@H](CS)NC(=O)c1ccc(F)cc1)C(=O)O
READOUT_TYPE: IC50
CENSORING_OPERATOR: =
ASSAY_VALUE: 14

COMPOUND: O=C(N[C@@H](Cc1c[nH]c2ccccc12)C(=O)N[C@@H](CO)C(=O)O)c1ccc(F)cc1
READOUT_TYPE: IC50
CENSORING_OPERATOR: =
ASSAY_VALUE: 200

---

pIC50: −log10 of the molar value. Residues, ends and D or L forms follow the SMILES beside them.
Reported pIC50 values, Prostaglandin G/H synthase 1 (Ovis aries, UniProt P05979).
READOUT_TYPE: pIC50

COMPOUND: N[C@@H](Cc1c[nH]c2ccccc12)C(=O)N[C@@H](CS)C(=O)N[C@@H](CO)C(=O)O (H-Trp-Cys-Ser-OH)
ASSAY_VALUE: 5.22

COMPOUND: O=C(N[C@@H](CS)C(=O)N[C@@H](CO)C(=O)O)c1ccc(F)cc1
ASSAY_VALUE: 5.30

COMPOUND: O=C(N[C@@H](Cc1c[nH]c2ccccc12)C(=O)N[C@@H](CS)C(=O)N[C@@H](CO)C(=O)O)c1ccc(F)cc1
ASSAY_VALUE: 3.85

COMPOUND: O=C(O)C[C@H](NC(=O)[C@H](CS)NC(=O)c1ccc(F)cc1)C(=O)O
ASSAY_VALUE: 4.82
